Kindly supply the reported Flu values for the records listed here.
# procedure-summary: Spectroscopic measurements (absorption, emission, quantum yield, extinction coefficient)
# Assay type: physicochemical
# condition-set: BDNCA library, fluorescence emission
Numbers only.

Here is how some compounds turned out for Flu.
INSERT INTO measurements (structure_as_smiles, meas_value) VALUES
  ('Cc1cc(/C=C/c2ccc3c4c(cccc24)CC3)n2c1C(c1ccc(NC(=O)CCl)cc1)=C1C=CC=[N+]1[B-]2(F)F', 634),
  ('Cc1cc(/C=C/c2ccc(Oc3ccc(C=O)cc3)cc2)n2c1C(c1ccc(NC(=O)CCl)cc1)=C1C=CC=[N+]1[B-]2(F)F', 586),
  ('CC1=CC(/C=C/c2cccc(I)c2)=[N+]2C1=C(c1ccc(NC(=O)CCl)cc1)c1cccn1[B-]2(F)F', 575);

# per-item lookup of Flu; items listed below
1. COc1ccc(/C=C/c2cc(C)c3n2[B-](F)(F)[N+]2=CC=CC2=C3c2ccc(NC(=O)CCl)cc2)cc1
2. CCc1ccc(/C=C/C2=[N+]3C(=C(c4ccc(NC(=O)CCl)cc4)c4cccn4[B-]3(F)F)C(C)=C2)cc1[N+](=O)[O-]
3. COc1cc(/C=C/C2=[N+]3C(=C(c4ccc(NC(=O)CCl)cc4)c4cccn4[B-]3(F)F)C(C)=C2)cc(Cl)c1OC
4. CC1=CC(/C=C/c2c[nH]c3ccc(Br)cc23)=[N+]2C1=C(c1ccc(NC(=O)CCl)cc1)c1cccn1[B-]2(F)F
5. Cc1cccc(/C=C/c2cc(C)c3n2[B-](F)(F)[N+]2=CC=CC2=C3c2ccc(NC(=O)CCl)cc2)c1
6. CC1=CC(/C=C/c2ccc3c(c2)OCO3)=[N+]2C1=C(c1ccc(NC(=O)CCl)cc1)c1cccn1[B-]2(F)F
7. CC1=CC(/C=C/c2ccc(OC(C)(C)C)cc2)=[N+]2C1=C(c1ccc(NC(=O)CCl)cc1)c1cccn1[B-]2(F)F

1: 596; 2: 576; 3: 581; 4: 646; 5: 575; 6: 607; 7: 600

# per-item lookup of Flu; items listed below
1. COc1cc2ccccc2c(/C=C/C2=[N+]3C(=C(c4ccc(NC(=O)CCl)cc4)c4cccn4[B-]3(F)F)C(C)=C2)c1OC
2. C=CCOc1ccccc1/C=C/C1=[N+]2C(=C(c3ccc(NC(=O)CCl)cc3)c3cccn3[B-]2(F)F)C(C)=C1

[603, 585]

---

# procedure-summary: Spectroscopic measurements (absorption, emission, quantum yield, extinction coefficient)
# Type: physicochemical
# condition-set: BDNCA library, fluorescence emission
Kindly supply the reported Flu values for the records listed here.
One number for each entry.

Here is how some compounds turned out for Flu.
INSERT INTO measurements (structure_as_smiles, meas_value) VALUES
  ('CC1=CC(/C=C/c2ccoc2)=[N+]2C1=C(c1ccc(NC(=O)CCl)cc1)c1cccn1[B-]2(F)F', 570),
  ('COc1ccc(/C=C/C2=[N+]3C(=C(c4ccc(NC(=O)CCl)cc4)c4cccn4[B-]3(F)F)C(C)=C2)cc1O', 599),
  ('CC1=CC(/C=C/c2ccc(Cl)c(Cl)c2)=[N+]2C1=C(c1ccc(NC(=O)CCl)cc1)c1cccn1[B-]2(F)F', 575),
  ('CC1=CC(/C=C/c2ccc(Br)s2)=[N+]2C1=C(c1ccc(NC(=O)CCl)cc1)c1cccn1[B-]2(F)F', 597),
  ('CC1=CC(/C=C/c2cc(Cl)cc(Cl)c2O)=[N+]2C1=C(c1ccc(NC(=O)CCl)cc1)c1cccn1[B-]2(F)F', 577),
  ('CC1=CC(/C=C/c2ccc(C(C)(C)C)cc2)=[N+]2C1=C(c1ccc(NC(=O)CCl)cc1)c1cccn1[B-]2(F)F', 581);

# per-item lookup of Flu; items listed below
1. Cc1cc(/C=C/c2ccc(-c3ccccc3)cc2)n2c1C(c1ccc(NC(=O)CCl)cc1)=C1C=CC=[N+]1[B-]2(F)F
2. CC1=CC(/C=C/c2ccc(C)o2)=[N+]2C1=C(c1ccc(NC(=O)CCl)cc1)c1cccn1[B-]2(F)F
3. CCCc1ccc(/C=C/C2=[N+]3C(=C(c4ccc(NC(=O)CCl)cc4)c4cccn4[B-]3(F)F)C(C)=C2)cc1
4. CC1=CC(/C=C/c2ccc(O)cc2)=[N+]2C1=C(c1ccc(NC(=O)CCl)cc1)c1cccn1[B-]2(F)F
5. CC1=CC(/C=C/c2ccc(OCc3ccccc3)cc2)=[N+]2C1=C(c1ccc(NC(=O)CCl)cc1)c1cccn1[B-]2(F)F
6. COc1cc(/C=C/C2=[N+]3C(=C(c4ccc(NC(=O)CCl)cc4)c4cccn4[B-]3(F)F)C(C)=C2)cc(I)c1OC

589
618
581
606
593
586
